Assay text: binders of probe aFGF2 on microarray, primary screen, stem cell growth factor project, biochemical, small-molecule microarray, fluorescence 635/667 (AID 1067);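 further: measures binding of biotinylated aFGF2 protein to printed compounds on slides; z-score merges feature fluorescence and signal-to-noise across triplicate slides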
Test context: higher = more signal
Quick reference: composite z-score of the listed items.

Compound	composite z-score
COCCOC(=O)N1C(=O)[C@@]2(c3ccccc31)[C@H](C(=O)NC[C@H](O)c1ccccc1)[C@H]1C(=O)O[C@H](c3ccccc3)[C@H](c3ccccc3)N1[C@@H]2c1ccc(OCCO)cc1	-0.113
COC(=O)C1=CC(CCCO)=CC(C2CC2)N(Cc2sc3ccccc3c2Cl)C=C1C(=O)OC (configuration not stated)	0.0216
C[C@H]1NC(=O)[C@H](Cc2ccccc2)NC(=O)[C@@]23C(=O)N[C@@H](Cc4ccccc4)C2[C@H](C)[C@@]2(C)O[C@H]2C3/C=C/C/C=C\CNC1=O (some centres not stated)	-0.0878
COc1ccc(C#Cc2ccc3c(c2)[C@]2(C(=O)N3)[C@H](c3ccc(O)cc3)N3[C@H](c4ccccc4)[C@H](c4ccccc4)OC(=O)[C@H]3[C@@H]2C(=O)N2CCCCCCC2)cc1	0.858
C[C@]1(C(=O)NCc2ccccc2)c2ccccc2C(=O)N(Cc2ccc(OC(F)(F)F)cc2)[C@H]1c1ccc(CO)cc1	-0.0507
CCOC(=O)C[C@H]1[C@H](OC(=O)c2ccc(-c3ccccc3)cc2)[C@@H](NC(=O)c2ccc(-c3ccccc3)cc2)c2cc(OCCCO)ccc2N1C(=O)Cc1ccc(OC)cc1	-0.0525
COCCOC(=O)N1C(=O)[C@@]2(c3cc(C#CCNC(N)=O)ccc31)[C@H](C(=O)N1CCc3cc(OC)c(OC)cc3C1)[C@H]1C(=O)O[C@H](c3ccccc3)[C@H](c3ccccc3)N1[C@@H]2c1ccc(OCCO)cc1	-0.0293
O=C1C[C@]2(c3ccc([N+](=O)[O-])cc3)C(=O)N(CC(F)(F)F)c3cc(CO)ccc3[C@H]2N1CC12CC3CC(CC(C3)C1)C2	-0.101
CCOC(=O)C[C@H]1[C@H](OC(=O)c2ccc(-c3ccccc3)cc2)[C@@H](NC(=O)Cc2ccc(OC)cc2)c2cc(OCCCO)ccc2N1C(=O)c1ccc2ccccc2n1	0.0176
[N-]=[N+]=NCc1ccccc1C[C@]1(C(=O)NCC(O)CO)N=C(c2ccc(OCCCO)cc2)O[C@H]1c1ccccc1N=[N+]=[N-] (some centres not stated)	-0.01
Cc1ccc([C@H]2[C@H](C(=O)O)[C@H](Sc3ccccc3)[C@@H](C(C)C)N2S(=O)(=O)c2ccc(C)cc2)cc1	0.167
COCCOC(=O)N1C(=O)[C@@]2(c3cc(C#CCNC(N)=O)ccc31)[C@H](c1ccccc1OCCO)N1[C@H](c3ccccc3)[C@H](c3ccccc3)OC(=O)[C@H]1[C@@H]2C(N)=O	-0.171
